Attribution: paper PMC6049601

assay: Oral bioavailability / pharmacokinetic study in rats; type: in vivo, Sprague-Dawley (SD) rats; details: Sprague-Dawley, rat, plasma, iv, 8 mg/kg
measurementType: AUC(0-t) (ng·h/mL)
Report only the number, with the unit ng·h/mL understood.

Item: Oc1ccc(/C=C/c2cc(O)cc(O)c2)cc1 [Free RES, Resveratrol] | AUC(0-t): 902

* * *

test: Oral bioavailability / pharmacokinetic study in rats; assay type: in vivo, Sprague-Dawley (SD) rats; details: Sprague-Dawley, rat, plasma, iv, 8 mg/kg
measurementType: MRT inf
Give the figure together with its unit, number first.

Item: Oc1ccc(/C=C/c2cc(O)cc(O)c2)cc1 [Free RES, Resveratrol] | MRT inf: 5.27 h

* * *

experiment: Oral bioavailability / pharmacokinetic study in rats; type: in vivo, Sprague-Dawley (SD) rats; conditions: Sprague-Dawley, rat, plasma, iv, 8 mg/kg
measurementType: Tmax (min)
Report only the number, with the unit min understood.

Item: Oc1ccc(/C=C/c2cc(O)cc(O)c2)cc1 [Free RES, Resveratrol] | Tmax: 7.98
